Every entry's value here was drawn from ChEMBL document CHEMBL1140423.

measured.target: Focal adhesion kinase 1 (Homo sapiens, UniProt Q05397)
Sequence (Q05397 whole entry): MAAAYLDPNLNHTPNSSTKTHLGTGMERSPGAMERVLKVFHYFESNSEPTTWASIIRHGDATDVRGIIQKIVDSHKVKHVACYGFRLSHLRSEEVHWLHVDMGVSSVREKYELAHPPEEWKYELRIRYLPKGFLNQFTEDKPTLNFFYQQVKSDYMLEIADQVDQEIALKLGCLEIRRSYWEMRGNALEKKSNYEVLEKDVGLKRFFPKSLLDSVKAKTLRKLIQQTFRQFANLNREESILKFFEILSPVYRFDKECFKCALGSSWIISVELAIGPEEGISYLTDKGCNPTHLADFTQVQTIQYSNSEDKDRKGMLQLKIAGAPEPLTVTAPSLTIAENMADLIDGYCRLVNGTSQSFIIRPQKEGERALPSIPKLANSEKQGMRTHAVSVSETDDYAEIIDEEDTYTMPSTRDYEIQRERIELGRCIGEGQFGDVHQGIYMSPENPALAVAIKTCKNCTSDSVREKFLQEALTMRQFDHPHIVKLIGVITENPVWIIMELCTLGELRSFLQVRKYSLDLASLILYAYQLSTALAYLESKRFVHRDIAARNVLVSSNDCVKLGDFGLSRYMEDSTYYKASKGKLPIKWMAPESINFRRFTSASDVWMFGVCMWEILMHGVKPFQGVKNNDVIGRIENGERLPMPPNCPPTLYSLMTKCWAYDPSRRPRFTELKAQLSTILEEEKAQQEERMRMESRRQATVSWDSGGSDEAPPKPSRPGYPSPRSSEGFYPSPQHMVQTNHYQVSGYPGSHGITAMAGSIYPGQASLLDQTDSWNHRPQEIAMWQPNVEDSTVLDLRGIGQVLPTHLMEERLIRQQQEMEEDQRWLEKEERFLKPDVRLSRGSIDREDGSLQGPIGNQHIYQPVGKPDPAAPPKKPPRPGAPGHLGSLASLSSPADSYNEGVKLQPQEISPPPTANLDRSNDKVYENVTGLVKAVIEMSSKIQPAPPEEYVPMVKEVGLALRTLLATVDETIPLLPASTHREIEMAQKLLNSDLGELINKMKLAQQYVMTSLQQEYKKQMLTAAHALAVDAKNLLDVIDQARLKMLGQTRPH
experiment.description: Inhibitory activity against FAK
property.name: IC50

Recorded IC50 for "COc1cc2c(cc1OC)-c1n[nH]c(Nc3cccc(F)c3)c1C2" with Focal adhesion kinase 1 (Homo sapiens, UniProt Q05397), please? > 100 µM

---

measured.target: Fibroblast growth factor receptor 1 (Homo sapiens, UniProt P11362)
Sequence (P11362 whole entry): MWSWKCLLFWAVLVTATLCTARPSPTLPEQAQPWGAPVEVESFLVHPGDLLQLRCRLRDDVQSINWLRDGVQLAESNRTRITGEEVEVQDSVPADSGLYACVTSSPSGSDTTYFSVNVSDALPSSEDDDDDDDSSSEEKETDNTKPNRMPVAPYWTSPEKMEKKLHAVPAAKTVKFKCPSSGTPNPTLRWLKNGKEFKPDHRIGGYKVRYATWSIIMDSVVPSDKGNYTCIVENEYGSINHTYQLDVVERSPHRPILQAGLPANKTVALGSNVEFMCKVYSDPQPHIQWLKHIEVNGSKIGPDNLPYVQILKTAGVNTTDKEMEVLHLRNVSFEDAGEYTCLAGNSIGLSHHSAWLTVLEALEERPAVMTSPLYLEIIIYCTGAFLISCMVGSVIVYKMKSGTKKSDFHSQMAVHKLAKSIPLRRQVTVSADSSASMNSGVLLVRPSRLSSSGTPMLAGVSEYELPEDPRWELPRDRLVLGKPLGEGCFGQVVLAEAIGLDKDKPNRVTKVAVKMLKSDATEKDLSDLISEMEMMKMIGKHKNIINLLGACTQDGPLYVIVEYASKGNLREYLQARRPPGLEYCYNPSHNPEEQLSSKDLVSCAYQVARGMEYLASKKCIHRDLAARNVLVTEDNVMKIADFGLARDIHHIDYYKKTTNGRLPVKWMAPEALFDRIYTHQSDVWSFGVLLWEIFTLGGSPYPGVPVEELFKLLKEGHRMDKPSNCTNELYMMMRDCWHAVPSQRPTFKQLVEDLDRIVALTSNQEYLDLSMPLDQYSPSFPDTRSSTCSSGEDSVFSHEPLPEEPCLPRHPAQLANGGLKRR
property.name: pIC50
One number for each entry, as −log10 of the molar value.

Quick check: pIC50 of "COc1cc2c(cc1OC)-c1n[nH]c(Nc3cccc(F)c3)c1C2" ? 4.34

---

measured.target: UniProt:P24941
pIC50: −log10 of the molar value.
property.name: pIC50

Quick check: pIC50 of "COc1cc2c(cc1OC)-c1n[nH]c(Nc3cccc(F)c3)c1C2" ? < 5.00

---

Please respond with reported pIC50 for every item in the list.
measured.target: Platelet-derived growth factor receptor beta (Homo sapiens, UniProt P09619)
Sequence (P09619 whole entry): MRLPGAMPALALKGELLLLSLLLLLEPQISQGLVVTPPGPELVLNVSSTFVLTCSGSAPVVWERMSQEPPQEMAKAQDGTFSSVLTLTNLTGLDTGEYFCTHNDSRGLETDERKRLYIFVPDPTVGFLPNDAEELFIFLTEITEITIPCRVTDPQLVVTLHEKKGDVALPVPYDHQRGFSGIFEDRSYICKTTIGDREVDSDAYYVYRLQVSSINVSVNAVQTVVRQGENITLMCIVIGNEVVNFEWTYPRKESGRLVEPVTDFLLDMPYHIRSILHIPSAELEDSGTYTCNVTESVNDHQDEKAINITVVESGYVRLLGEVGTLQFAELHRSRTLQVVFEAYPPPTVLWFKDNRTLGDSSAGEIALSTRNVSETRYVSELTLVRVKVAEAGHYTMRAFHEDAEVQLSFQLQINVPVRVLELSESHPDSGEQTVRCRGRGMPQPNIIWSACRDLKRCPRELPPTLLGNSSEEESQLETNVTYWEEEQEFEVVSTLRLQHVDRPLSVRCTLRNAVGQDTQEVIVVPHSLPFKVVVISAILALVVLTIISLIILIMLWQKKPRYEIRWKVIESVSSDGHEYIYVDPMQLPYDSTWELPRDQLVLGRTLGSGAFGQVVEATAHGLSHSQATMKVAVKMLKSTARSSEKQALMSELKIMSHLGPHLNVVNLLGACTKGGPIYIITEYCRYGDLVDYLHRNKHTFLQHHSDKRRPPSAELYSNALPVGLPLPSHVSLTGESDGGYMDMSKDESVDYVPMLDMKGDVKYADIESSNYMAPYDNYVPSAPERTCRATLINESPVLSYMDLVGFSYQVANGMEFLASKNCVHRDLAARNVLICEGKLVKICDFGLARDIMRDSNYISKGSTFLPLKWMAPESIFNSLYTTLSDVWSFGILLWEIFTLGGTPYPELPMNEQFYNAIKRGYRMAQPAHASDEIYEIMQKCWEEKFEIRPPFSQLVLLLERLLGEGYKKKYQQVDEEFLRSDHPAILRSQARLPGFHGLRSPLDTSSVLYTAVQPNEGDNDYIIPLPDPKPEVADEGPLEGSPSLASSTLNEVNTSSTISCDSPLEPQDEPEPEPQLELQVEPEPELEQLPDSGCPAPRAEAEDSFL
Numbers only, as −log10 of the molar value.

Known results for molecules:
>>> print(df.to_string())
                               input_smiles  property_name   val
0  COC(=O)c1cccc(Nc2[nH]nc3c2Cc2cc(OC)c(OC)cc2-3)c1          pIC50  7.48
1  COc1cc2c(cc1OC)-c1n[nH]c(Nc3cccc(C(F)(F)F)c3)c1C2          pIC50  7.42
2   COc1cc2c(cc1OC)-c1[nH]nc(-c3ccccc3)c1C2          pIC50  7.77
3  COc1cc2c(cc1OC)-c1n[nH]c(Nc3cccc(Br)c3)c1C2          pIC50  8.30

Switching to the query record.
Quick check: pIC50 of "COc1cc2c(cc1OC)-c1n[nH]c(Nc3cccc(F)c3)c1C2" ? 8.38

---

measured.target: UniProtKB P06241
Sequence (P06241 whole entry): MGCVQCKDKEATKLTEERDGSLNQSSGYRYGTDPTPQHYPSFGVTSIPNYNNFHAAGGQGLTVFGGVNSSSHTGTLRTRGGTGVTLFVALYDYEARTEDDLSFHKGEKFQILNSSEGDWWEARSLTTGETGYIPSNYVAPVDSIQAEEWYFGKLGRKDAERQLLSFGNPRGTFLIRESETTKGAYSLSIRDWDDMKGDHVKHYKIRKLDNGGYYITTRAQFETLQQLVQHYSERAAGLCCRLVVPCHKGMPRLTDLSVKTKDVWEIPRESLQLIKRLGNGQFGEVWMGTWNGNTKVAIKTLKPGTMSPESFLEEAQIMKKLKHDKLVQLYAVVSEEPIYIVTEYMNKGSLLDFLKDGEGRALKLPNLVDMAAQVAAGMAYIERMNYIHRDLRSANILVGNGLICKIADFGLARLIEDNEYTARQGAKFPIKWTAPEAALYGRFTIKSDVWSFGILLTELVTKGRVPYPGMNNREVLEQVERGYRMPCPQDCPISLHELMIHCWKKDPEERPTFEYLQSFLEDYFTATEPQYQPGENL
property.name: IC50 (nM)
Numbers only, in nM.

Quick check: IC50 of "COc1cc2c(cc1OC)-c1n[nH]c(Nc3cccc(F)c3)c1C2" ? 378

---

measured.target: Proto-oncogene tyrosine-protein kinase Src (Homo sapiens)
property.name: IC50 (µM)
Numbers only, in µM.

Quick check: IC50 of "COc1cc2c(cc1OC)-c1n[nH]c(Nc3cccc(F)c3)c1C2" ? 0.185

---

measured.target: Insulin receptor (Homo sapiens, UniProt P06213)
Sequence (P06213 28-758 limits assumed): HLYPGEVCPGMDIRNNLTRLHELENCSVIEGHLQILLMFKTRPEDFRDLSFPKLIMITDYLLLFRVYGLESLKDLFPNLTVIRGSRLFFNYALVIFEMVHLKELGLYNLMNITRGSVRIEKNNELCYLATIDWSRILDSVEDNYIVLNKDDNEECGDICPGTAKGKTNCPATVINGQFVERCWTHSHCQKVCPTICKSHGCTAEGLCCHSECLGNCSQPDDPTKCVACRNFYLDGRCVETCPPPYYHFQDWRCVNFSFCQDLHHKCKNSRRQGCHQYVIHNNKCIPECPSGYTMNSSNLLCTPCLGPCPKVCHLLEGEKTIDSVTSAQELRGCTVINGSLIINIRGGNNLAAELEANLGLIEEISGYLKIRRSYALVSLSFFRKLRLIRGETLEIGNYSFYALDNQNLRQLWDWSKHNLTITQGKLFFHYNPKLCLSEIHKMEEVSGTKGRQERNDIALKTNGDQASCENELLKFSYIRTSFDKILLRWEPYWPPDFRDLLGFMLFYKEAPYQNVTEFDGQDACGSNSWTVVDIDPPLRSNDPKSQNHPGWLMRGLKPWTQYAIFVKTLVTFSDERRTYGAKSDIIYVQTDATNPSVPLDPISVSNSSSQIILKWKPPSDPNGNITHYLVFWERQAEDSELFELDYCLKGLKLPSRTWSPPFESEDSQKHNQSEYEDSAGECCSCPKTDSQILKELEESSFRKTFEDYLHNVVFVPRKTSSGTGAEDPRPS
Sequence (P06213 763-1382 limits assumed): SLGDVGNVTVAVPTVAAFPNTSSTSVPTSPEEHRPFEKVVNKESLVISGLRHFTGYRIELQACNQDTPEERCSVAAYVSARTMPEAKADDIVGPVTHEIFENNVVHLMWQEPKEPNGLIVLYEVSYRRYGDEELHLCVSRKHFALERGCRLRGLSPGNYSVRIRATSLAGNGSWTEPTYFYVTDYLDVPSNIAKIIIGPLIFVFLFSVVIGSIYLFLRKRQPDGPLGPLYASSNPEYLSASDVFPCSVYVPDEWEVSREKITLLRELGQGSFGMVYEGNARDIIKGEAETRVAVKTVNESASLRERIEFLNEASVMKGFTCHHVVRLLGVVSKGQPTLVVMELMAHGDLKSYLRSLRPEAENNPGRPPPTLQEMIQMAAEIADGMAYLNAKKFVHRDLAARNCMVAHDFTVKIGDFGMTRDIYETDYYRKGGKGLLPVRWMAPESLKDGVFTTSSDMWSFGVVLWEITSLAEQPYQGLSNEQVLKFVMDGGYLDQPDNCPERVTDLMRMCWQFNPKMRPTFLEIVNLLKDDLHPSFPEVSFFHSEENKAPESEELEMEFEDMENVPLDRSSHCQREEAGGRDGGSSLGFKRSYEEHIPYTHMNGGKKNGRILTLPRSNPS
property.name: IC50

Quick check: IC50 of "COc1cc2c(cc1OC)-c1n[nH]c(Nc3cccc(F)c3)c1C2" ? > 100 µM

---

System: T47D
experiment.description: Antiproliferative activity against human breast tumor cell line T47D
Assay type: functional, cell-based
Response field label: string, one of met (IC50 strictly below 40 nM) or not met.

Completed entries (count: 8):
                               input_smiles  answer_label
0   COc1cc2c(cc1OC)-c1[nH]nc(-c3ccccc3)c1C2       not met
1         COc1cccc2c1Cc1c-2n[nH]c1Nc1ccccc1       not met
2  COc1cc2c(cc1OC)-c1n[nH]c(Nc3cccc(C(F)(F)F)c3)c1C2       not met
3  COc1cc2c(cc1OC)-c1n[nH]c(Nc3cccc(Br)c3)c1C2           met
4  COc1cccc(Nc2[nH]nc3c2Cc2cc(OC)c(OC)cc2-3)c1           met
5     COc1ccc2c(c1)-c1n[nH]c(Nc3ccccc3)c1C2       not met
6  COc1cc2c(cc1OC)-c1n[nH]c(Nc3cccc(F)c3)c1C2           met
7   COc1cc2c(cc1OC)-c1n[nH]c(Nc3ccccc3)c1C2       not met

I'd appreciate it if you could check whether "COc1cc2c(cc1OC)-c1n[nH]c(Nc3cccc(C)c3)c1C2" has IC50 smaller than 40 nM. not met
